The origin of these recorded values is patent US20020137929A1.

Tested on: ORYSAT (Rice, Tebonnet)
Experiment: Postemergence herbicidal evaluation
Assay type: in vivo, Oryza sativa, (L.) Tebonnet
Details: postemergence, rate 0.0156 kg/ha
Please use criterion met for herbicidal rating ORYSAT under 2 and criterion not met for everything else, ties included.

Consider the worked cases shown below.
[
  {
    "Compound": "Cn1c(C(F)(F)F)cc(=O)n(-c2cc(N=C3SCC(=O)N3Cc3ccc(Cl)cc3)c(Cl)cc2F)c1=O [Compound 145]",
    "Discrete label": "criterion not met"
  },
  {
    "Compound": "CCOC(=O)CN1C(=O)C(SC)SC1=Nc1cc(-n2c(=O)cc(C(F)(F)F)n(C)c2=O)c(F)cc1Cl (stereo not drawn) [Compound 125]",
    "Discrete label": "criterion not met"
  },
  {
    "Compound": "Cn1c(C(F)(F)F)cc(=O)n(-c2cc(N=C3SCC(=O)N3Cc3ccco3)c(Cl)cc2F)c1=O [Compound 122]",
    "Discrete label": "criterion not met"
  }
]

Exam item: A record lists Cn1c(C(F)(F)F)cc(=O)n(-c2cc(N=C3SCC(=O)N3CC(F)(F)F)c(Cl)cc2F)c1=O [Compound 163] . Is its herbicidal rating ORYSAT below 2?
Marked response: criterion met

Exam item: A record lists C=CCN1C(=O)C(CC(N)=O)SC1=Nc1cc(-n2c(=O)cc(C(F)(F)F)n(C)c2=O)c(F)cc1Cl (stereo not drawn) [Compound 99] . Is its herbicidal rating ORYSAT below 2?
Marked response: criterion not met

Exam item: A record lists CCOC(=O)CN1C(=O)C(C(=O)OCC)SC1=Nc1cc(-n2c(=O)cc(C(F)(F)F)n(C)c2=O)c(F)cc1Cl (stereo not drawn) [Compound 127] . Is its herbicidal rating ORYSAT below 2?
Marked response: criterion met
